Assay: NCI Yeast Anticancer Drug Screen. Data for the cln2 rad14 strain (AID 165)
Conditions: S. cerevisiae cln2 rad14 strain, at 50.0 µM
Description: Growth inhibition of yeast strains with defined genetic alterations is measured as a screen for potential anti-cancer activity. Selected strains with alterations in DNA damage repair or cell cycle control were exposed to compounds and growth inhibition was measured relative to vehicle treated controls. The strain used in this assay is cln2 rad14
About 79,000 compounds went through this panel and 15% of them were active in at least one assay; those are over-represented in the sample as a whole. The source made the active and inactive calls. Cut-off read from the data, not from the text of the source: active = growth inhibition above about 70%; inactive = the rest.
Outcomes: active, inactive

1) CN(C)CC(C)(C)C(/C=C/c1ccccc1)=N\Nc1ccccc1: active
2) COC(=O)CCCCCOS(=O)(=O)c1ccc(C)cc1: active
3) CC(C)CN(CC(C)C)CN1C(=O)/C(=C/c2ccc([N+](=O)[O-])cc2)SC1=S: inactive
4) O=[N+]([O-])C(=C(Nc1ccccc1)Nc1ccccc1)C(Cl)=C(Cl)Cl: active
5) O=[N+]([O-])c1ccc(N2CCCC(n3cccc3)C2)c([N+](=O)[O-])c1 (stereo unspecified): inactive
6) CN(/N=C\c1ccc2ccccc2c1)C1=NCCCN1: inactive
7) O=C(CCN1CCN(c2cccc(Cl)c2)CC1)N1CCc2c([nH]c3ccccc23)C1c1cccnc1 (stereo unspecified): active
8) O=Cc1[nH]c(=S)[nH]c(=O)c1Cc1cccc2ccccc12: active
9) CCCCCCSC(=Cc1cccc[n+]1C)SCCCCCC: active
10) COc1ccc(Cc2ccc3c(C)cc(Cl)nc3c2)cc1: inactive
11) CC(C)N=Cc1cc(Br)cc(Br)c1O.CC(C)N=Cc1cc(Br)cc(Br)c1O.[Co]: inactive

----------
Assay: NCI Yeast Anticancer Drug Screen. Data for the mlh1 rad18 strain (AID 175)
Conditions: S. cerevisiae mlh1 rad18 strain growth inhibition; at 50.0 µM (retest, dose inferred, filed as 5.0)
The panel holds about 79,000 compounds, 15% with a hit somewhere; the sample as a whole holds those more often. The source made the active and inactive calls. Rule as the data show it: active = growth inhibition above about 70%; inactive = the rest.
Outcomes: true for active, false for inactive

1) CC1(C)OC2COC3(CNO)OC(C)(C)OC3C2O1 (configuration not stated): false
2) COC(=O)CC1c2cc(OC)c3cccc(OC)c3c2CCC1(C)C(=O)OC (configuration not stated): true
3) Cn1nc(-c2ccccc2NC(=O)C(F)(F)F)c(=O)n(C)c1=S: false
4) CC(=O)Oc1c(C)cc([N+](=O)[O-])cc1[N+](=O)[O-]: true
5) C=C1C(=O)OC2/C=C(\C(=O)O)CC/C=C(\C)CC(OC(=O)/C=C(\C)CC)C12 (configuration not stated): true
6) CN(C)/N=C\C1CC=CCC1 (configuration not stated): false
7) O=C(O)C/C(=C\c1ccco1)C(=O)O: false
8) COc1ccc(-c2nc(C)[nH]c(=O)c2Cc2c(O)ccc3ccccc23)cc1: false
9) CCCCCCCCCCCCNCC(=O)O: false
10) N=c1n(CC(=O)NC23CC4CC(CC(C4)C2)C3)c2ccccc2n1CC(=O)NC12CC3CC(CC(C3)C1)C2: false
11) O=C(O)Cc1c[nH]c2ccccc12: false
12) CCCCc1ccc2nc(C)cc(N=[N+]=[N-])c2c1: true
13) COc1ccc2c(c1)C(O)=C(CC=C(C)C)C(=O)C2=O: true
14) N=C(N)SCc1cc(Cl)cc(Cl)c1O: false
15) CC(=O)OCC1OC(n2c(O)c(N=NC(N)=S)c3ccc([N+](=O)[O-])cc32)C(OC(C)=O)C1OC(C)=O (configuration not stated): false
16) COc1cc2c(c(OC)c1OC)-c1ccc(SC)c(=O)cc1[C@@H](NC(=O)Oc1ccccc1)CC2: false
17) CC(C(=O)c1ccc(Cl)cc1)C1OC(=O)C(Cl)=C1Cl (configuration not stated): true
18) CC(C)(C)OC(=O)C(N(Cc1ccccc1)Cc1ccccc1)N(Cc1ccccc1)Cc1ccccc1: false
19) O=Nc1c(NO)c2ccccc2c2ccccc12: true
20) CN(C)CC(C)(CN(C)C)C(=O)/C=C/c1ccc(Cl)c(Cl)c1: true
21) Cc1ccc[n+](CC(=O)C2CCC3C4CC=C5CC(O)CCC5(C)C4CCC23C)c1 (configuration not stated): false
22) CCCCCCCCCCCCCCC[C@@H](O)C[N+](C)(C)CCO: true
23) C1CCC(C2CCC(N3CCCCC3)CC2)CC1 (configuration not stated): true
24) CCCCCCc1c(Cl)nc(Cl)nc1Cl: false
25) Cc1cc(Br)c(P(=O)(O)O)cc1[N+](=O)[O-]: false
26) Oc1ccc(-c2ccc3ccccc3c2)cc1: true
27) COc1ccc(C2c3cc4c(cc3OC(O)C2C)OCO4)c(OC)c1 (configuration not stated): true
28) N#CC(C#N)=Cc1ccc(Oc2ccccc2)cc1: true
29) CCOC(=O)C(Cc1cc(I)c(Oc2ccc(OC)cc2)c(I)c1)NC(C)=O (configuration not stated): true
30) O=[N+]([O-])/C(=C\c1cccs1)c1ccccc1: true
31) COc1ccc(C(O)(c2ccccc2)c2ccccc2)cc1: true
32) Clc1ccc(C(CCc2ccc(Br)cc2)Cn2ccnc2)c(Cl)c1 (configuration not stated): true
33) O=[N+]([O-])/C(Cl)=C(\Nc1ccccc1)C(Cl)=C(Cl)Cl: true
34) COc1cc(/C=C2\CC(C)C/C(=C\c3ccc(O)c(OC)c3)C2=O)ccc1O (configuration not stated): true
35) [O-][N+]1=C2CCC/C(=N/O)C2(O)C2CCCCC21N1CCOCC1 (configuration not stated): false
36) Cn1cnc([N+](=O)[O-])c1S: false
37) COC1/C=C\C=C(/C)C(=O)Nc2cc3nc4cc(Br)ccc4oc-3c(c2=O)CC(C)CC(OC)C(O)C(C)/C=C(\C)C1OC(N)=O (configuration not stated): true
38) CCOC(=O)Nc1c(F)cc(F)cc1F: false
39) CCCCCCCCCCCCCCN1CCSCC1: false
40) c1c2c(cc(-n3nnc4c3CCCCCC4)c1-n1nnc3c1CCCCCC3)CCCCCC2: false
41) CC1(C)CC(=N/O)/C(=N/O)C(=N\NC(N)=S)/C1: false
42) CCCCCCCCCCCCO: false
43) O=C(c1ccccc1)c1[nH]c2ccccc2c(=O)c1-c1ccc([N+](=O)[O-])cc1: true
44) Nc1ncnc2c1cnn2C1CCCCC1: true
45) CNC(=O)OCc1c(COC(=O)NC)c2n(c1C)-c1ccccc1CCC2: false
46) Cc1ccc(S(=O)(=O)NNc2nc(N3CCOCC3)nc(N3CCOCC3)n2)cc1: false
47) COc1ccc(C2c3cc4c(cc3OC(O)C2C)OCO4)cc1 (configuration not stated): true
